The reported measurements were obtained from ChEMBL document CHEMBL1123529.

Would you mind telling me the reported SP of each entry?
biological target: UniProtKB P30547; test: Evaluated in vitro for percent agonist activity in guinea pig ileum (substance P receptor); assay type: functional, tissue-based
Sequence (P30547 whole entry): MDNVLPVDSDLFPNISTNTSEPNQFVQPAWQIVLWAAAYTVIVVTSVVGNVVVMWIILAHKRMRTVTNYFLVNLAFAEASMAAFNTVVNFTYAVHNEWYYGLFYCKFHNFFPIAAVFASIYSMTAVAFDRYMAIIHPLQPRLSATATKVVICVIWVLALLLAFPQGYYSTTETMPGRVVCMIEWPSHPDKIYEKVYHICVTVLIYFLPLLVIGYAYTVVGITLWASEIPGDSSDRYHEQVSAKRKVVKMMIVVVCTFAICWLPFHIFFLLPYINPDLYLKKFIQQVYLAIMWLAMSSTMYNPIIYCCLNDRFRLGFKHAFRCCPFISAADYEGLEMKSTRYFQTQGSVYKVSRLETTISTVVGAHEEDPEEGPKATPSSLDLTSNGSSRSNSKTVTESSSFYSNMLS
Numbers only here, please. The scale is %.

In: What does the record list as SP for `COC(=O)[C@@H](CCSC)NC(=O)[C@H](CC(C)C)NC(=O)CNC(=O)[C@H](Cc1ccccc1)NC(=O)[C@H](Cc1ccccc1)NC(=O)[C@@H](NC(=O)[C@H](NC(=O)[C@@H]1CCCN1C(=O)[C@H](CCCCNC(=O)OCc1ccccc1)NC(=O)[C@@H]1CCCN1C(=O)[C@H](CCCN=C(N)N)NC(=O)OCc1ccccc1)C(C)C)C(C)C` ?
Out: 0.001

In: What does the record list as SP for `CSCC[C@@H](NC(=O)[C@H](CC(C)C)NC(=O)CNC(=O)[C@H](Cc1c[nH]c2ccccc12)NC(=O)[C@@H](Cc1c[nH]c2ccccc12)NC(=O)[C@H](CCC(N)=O)NC(=O)[C@H](CCC(N)=O)NC(=O)[C@@H]1CCCN1C(=O)[C@H](CCCCNC(=O)OCc1ccccc1)NC(=O)[C@@H]1CCCN1C(=O)[C@H](CCCN=C(N)N)NC(=O)OCc1ccccc1)C(=O)O` ?
Out: 0
